Test system: HOP-62
METHOD_DESCRIPTION: Growth inhibition of human HOP62 cells after 48 hrs by sulforhodamine B assay
Assay type: functional
MEASUREMENT_SETUP: HOP-62, 48 h
Entries and their log10 of GI50 values follow.
Could you please treat all values as log10 of GI50 in µM?

Solved entries:
# LINE_NOTATION, log10 of GI50
records = [
    ("COc1cc(/C=C/c2cc(O)c3c(c2)C[C@@H]2C(C)(C)[C@H](O)CC[C@@]2(C)O3)cc(O)c1C/C=C(\\C)CCC=C(C)C", -0.32),
    ("COCOc1cc(/C=C/c2cc(C=O)c3c(c2)C[C@@H]2C(C)(C)[C@H](O)CC[C@@]2(C)O3)cc(OC)c1C/C=C(\\C)CCC=C(C)C", 0.69),
    ("COc1cc(/C=C/c2cc3c(c(OC)c2)O[C@]2(C)CC[C@@H](O)C(C)(C)[C@H]2C3)cc(O)c1C/C=C(\\C)CCC=C(C)C", -0.08),
    ("COc1cc(/C=C/c2cc(F)c3c(c2)C[C@@H]2C(C)(C)[C@H](O)CC[C@@]2(C)O3)cc(O)c1C/C=C(\\C)CCC=C(C)C", 0.87),
    ("COc1cc(/C=C/c2cc3c(c(SC)c2)O[C@]2(C)CC[C@@H](O)C(C)(C)[C@H]2C3)cc(O)c1C/C=C(\\C)CCC=C(C)C", 1.08),
    ("COCOc1cc(/C=C/c2cc(CO)c3c(c2)C[C@@H]2C(C)(C)[C@H](O)CC[C@@]2(C)O3)cc(OC)c1C/C=C(\\C)CCC=C(C)C", -0.27),
]

Any idea what its log10 of GI50 is? The molecule is COc1cc(/C=C/c2ccc3c(c2)C[C@@H]2C(C)(C)[C@H](O)CC[C@@]2(C)O3)cc(O)c1C/C=C(\C)CCC=C(C)C
0.79
